Target: T1, human G-protein-coupled receptor family C group 5 member D (GPRC5D) (human, UniProt Q9NZD1 1-345)
T1 construct: whole, on cells; also called human GPRC5D protein
T1 sequence (Q9NZD1 whole entry): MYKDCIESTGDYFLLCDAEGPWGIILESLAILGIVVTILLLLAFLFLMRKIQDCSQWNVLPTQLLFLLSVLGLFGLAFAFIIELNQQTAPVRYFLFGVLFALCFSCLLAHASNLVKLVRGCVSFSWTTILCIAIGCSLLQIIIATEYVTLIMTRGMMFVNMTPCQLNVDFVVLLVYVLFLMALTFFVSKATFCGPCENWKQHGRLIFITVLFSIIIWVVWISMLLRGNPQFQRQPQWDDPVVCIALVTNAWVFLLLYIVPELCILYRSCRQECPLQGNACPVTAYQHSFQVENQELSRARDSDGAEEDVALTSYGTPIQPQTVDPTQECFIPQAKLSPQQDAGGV
Assay: FACS, CHO-K1/human GPRC5D
Observation Type: Span

6-H4L3 (antibody, V domains shown, humanized 6G10D9, VH v4 x VL v3) VH: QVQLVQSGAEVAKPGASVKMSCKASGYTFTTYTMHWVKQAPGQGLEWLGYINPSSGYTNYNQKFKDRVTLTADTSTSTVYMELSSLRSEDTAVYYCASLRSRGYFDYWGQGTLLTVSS VL: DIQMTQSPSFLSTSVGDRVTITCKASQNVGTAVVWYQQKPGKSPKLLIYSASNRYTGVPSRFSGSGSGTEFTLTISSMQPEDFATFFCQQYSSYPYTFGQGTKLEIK    146000

*Q* Could you tell me which Span is on file for 58-H1L1 (antibody, V domains shown, humanized 58F9G10, VH v1 x VL v1) VH: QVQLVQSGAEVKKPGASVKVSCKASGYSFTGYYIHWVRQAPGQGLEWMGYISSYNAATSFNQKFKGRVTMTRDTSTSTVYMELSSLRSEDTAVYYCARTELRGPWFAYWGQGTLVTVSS VL: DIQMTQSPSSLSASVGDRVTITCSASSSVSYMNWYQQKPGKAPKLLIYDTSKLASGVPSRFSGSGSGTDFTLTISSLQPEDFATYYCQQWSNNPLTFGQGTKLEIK ?
*A* 99200
